Documented NanoBRET Fold Response across a set of molecules
experimental_target: CCR9 (Homo sapiens)
Construct: purchased Promega (in-house HiBiT-GPCR construct library, NanoBRET)
Sequence (P51686 whole entry): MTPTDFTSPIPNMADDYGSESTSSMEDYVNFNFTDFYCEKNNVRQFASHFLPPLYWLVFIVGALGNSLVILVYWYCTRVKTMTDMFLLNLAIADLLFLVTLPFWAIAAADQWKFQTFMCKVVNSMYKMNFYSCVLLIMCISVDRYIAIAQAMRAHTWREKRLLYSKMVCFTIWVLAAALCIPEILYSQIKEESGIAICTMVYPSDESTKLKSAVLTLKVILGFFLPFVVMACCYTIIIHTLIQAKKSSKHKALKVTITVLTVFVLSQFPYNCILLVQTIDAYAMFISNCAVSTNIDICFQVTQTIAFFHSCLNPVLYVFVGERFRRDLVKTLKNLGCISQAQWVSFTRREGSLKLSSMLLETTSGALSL
test_summary: NanoBRET screen HiBiT-CCR9 in HEK293
Format: binding
measurement_setup: CCR9; tracer 1μM

The examples below pair each entry with its known result.
>  <molecule>
CC(C)N(CC[C@H](c1ccccc1)c1cc(CCNC(=O)CCOCCOCCOCCOCCNC(=O)CCc2ccc3n2[B-](F)(F)[N+]2=C(c4ccc[nH]4)C=CC2=C3)ccc1O)C(C)C [Tolterodine-2-NB590]

>  <result>
0.95

$$$$
>  <molecule>
CC(C)N(CC[C@H](c1ccccc1)c1cc(CCNC(=O)c2ccc(CNC(=O)CCc3ccc4n3[B-](F)(F)[N+]3=C(c5ccc[nH]5)C=CC3=C4)cc2)ccc1O)C(C)C [Tolterodine-BZ-NB590]

>  <result>
1.14

$$$$
>  <molecule>
Cc1nc2n(c(=O)c1CCN1CCC(c3noc4cc(F)ccc34)CC1)CCCC2OC(=O)NCCOCCOCCOCCOCCNC(=O)CCc1ccc2n1[B-](F)(F)[N+]1=C(c3ccc[nH]3)C=CC1=C2 (centres unmarked) [Risperidone-2-NB590]

>  <result>
0.94

$$$$

The reported NanoBRET Fold Response of the molecule O=C(CCOCCOCCOCCOCCNC(=O)CCc1ccc2n1[B-](F)(F)[N+]1=C(c3ccc[nH]3)C=CC1=C2)NCCCN1CCN(C2=Nc3ccccc3Oc3ccc(Cl)cc32)CC1 [Loxapine-a-2-NB590] was 0.91

Short answer for Cc1cc2c(s1)Nc1ccccc1N=C2N1CCN(CCCNC(=O)CCOCCOCCOCCOCCNC(=O)CCc2ccc3n2[B-](F)(F)[N+]2=C(c4ccc[nH]4)C=CC2=C3)CC1 [Olanzapine-a-2-NB590] : NanoBRET Fold Response was 1.17

NanoBRET Fold Response for COc1ccccc1N1CCN(CCCCN2C(=O)c3ccc(CNC(=O)CCOCCOCCOCCOCCNC(=O)CCc4ccc5n4[B-](F)(F)[N+]4=C(c6ccc[nH]6)C=CC4=C5)cc3C2=O)CC1 [NAN-190-2-NB590] is 0.99

The molecule O=C(CCc1ccc2n1[B-](F)(F)[N+]1=C(c3ccc[nH]3)C=CC1=C2)NCc1ccc(C(=O)NCCOCCC(=O)N[C@@H]2CC[C@@]3(O)[C@H]4Cc5ccc(O)c6c5[C@@]3(CCN4CC3CC3)[C@H]2O6)cc1 [Naltrexone-3-NB590] showed NanoBRET Fold Response equal to 0.92
